Attribute Measured: melting point

# annotated cases, reported melting point shown
Cc1ccc(Cn2cccc2C(=O)CC(=O)C(=O)O)cc1 ... 179 to 181 °C
CNc1nc(Br)cc(Sc2ccc([N+](=O)[O-])cc2)n1 ... 204 to 205 °C
COC(=O)C1CCC2C3CC(O)C4(O)CC(O)CCC4(C)C3CCC12C (stereo unspecified) ... 266 to 268 °C
CS(=O)(=O)Nc1ccc(F)c(C(O)CN)c1 (stereo unspecified) ... 176 to 179 °C
Nc1nc2cc(-c3ccc(C=C4SC(=O)NC4=O)cn3)cc(C34CC5CC(CC(C5)C3)C4)c2o1 ... > 360 °C

Turning now to a further compound:
*Q* Specify melting point for O=C1NC(=O)C(Cc2ccc(OCCNc3nc4ccccc4o3)cc2)S1 (stereo unspecified) and stop.
*A* 202 to 203 °C

====

Task for the reader: assign each of the following compounds its reported melting point.

COC(=O)C#Cc1cccc(C(=O)OC)c1 ... 96 to 97 °C
CC(=O)N1C(=O)c2ccccc2N(C(C)=O)C1C(Cl)(Cl)Cl (centres undefined) ... 152 to 154 °C
CCOC(=O)Cc1ccc(NC(=O)C(CO)NS(=O)(=O)c2ccc(Cl)cc2)cc1 (racemic) ... 139 to 140 °C

*Q* Specify melting point for COc1ccccc1-c1n[nH]c2c(Cl)cc(C)nc12 and stop.
*A* 184 to 190 °C

====

Task for the reader: assign each of the following compounds its reported melting point.

COc1cc(C(C)C)ccc1C1(O)C(=O)c2c(NC(C)=O)ccc([N+](=O)[O-])c2C1=O (stereo not drawn) ... 110 to 115 °C
COC(=O)c1cccc(OCCC(C#N)NC(=O)C(Cc2cccc(C)c2)NC(=O)C(c2ccccc2)c2ccccc2)c1 (stereo not drawn) ... 152 to 153 °C

*Q* Specify melting point for COC(=O)c1[nH]c2c(C)ccc(Cl)c2c1C(C)=O and stop.
*A* 167 to 168 °C

====

Task for the reader: assign each of the following molecules its reported melting point.

O=C(NC1CCCCC1)NS(=O)(=O)c1ccc2c(c1)CCN(C(=O)N1CCCCCC1)CC2 ... 155 to 156 °C
Cc1cc(S)n2nc(CC(=O)O)nc2n1 ... 253 to 255 °C
COc1ccc(/C=C/c2c(Cl)cncc2Cl)c2cc(-c3ccncc3)oc12 ... 204 to 206 °C

Your task in this section: give melting point for each listed record.
1. O=C1N=C(N2CCCC2)SC1=Cc1ccc(-c2cc(F)c(O)c(C34CC5CC(CC(C5)C3)C4)c2)s1
2. COc1c(N2C[C@H](N)[C@H]3OCC[C@H]32)c(F)cc2c(=O)c(C(=O)O)cn(C3CC3)c12 (relative stereo)

*A*
1: 312 to 315 °C; 2: 187 to 189 °C

Your task in this section: give melting point for each listed record.
1. Cc1noc(NS(=O)(=O)c2ccccc2-c2ccc(-c3ncco3)cc2CN(C)C(=O)C2CC2)c1C
2. N#Cc1cnn2c1N(C(=O)CCl)CC=C2c1ccc(Cl)cc1
3. COc1ccccc1-c1nsc2ccc([N+](=O)[O-])cc12
4. CCCCOCn1c(-c2ccc(Cl)cc2)c(C#N)c(Br)c1C(F)(F)F

*A*
1. 92 to 102 °C
2. 198 to 199 °C
3. 193 to 198 °C
4. 52 to 53.5 °C
